Reported values: IC50 for PI3 Kinase γ (Homo sapiens, UniProt P48736), one per item.
READOUT KIND: IC50 (nM)

MOL SMILES: CC(C)n1nnc2c(N3CCOCC3)nc(-c3ccc(NC(=O)Nc4ccc(N(C)C)cc4)cc3)nc21
UNITS SYMBOL: nM
TEST VALUE: 69

[A] CCn1nnc2c(N3CCOCC3)nc(-c3ccc(NC(=O)Nn4cnnc4)cc3)nc21
[B] O=C(O)Cn1nnc2c(N3CCOCC3)nc(-c3cccc(O)c3)nc21
Request: Hi there, can you help? I need to know whether A or B has lower measured IC50. Write down the label attached to your selection.
Result: A

[a] CNCCCCn1nnc2c(N3CCOCC3)nc(-c3cccc(O)c3)nc21
[b] CCn1nnc2c(N3CCOCC3)nc(-c3ccc(NC(=O)NC4CCN(C(=O)OCc5ccccc5)CC4)cc3)nc21
Request: Would you let me know which has the greater IC50 value, a or b ? Write down the label attached to your selection.
Result: b
(b: 1800 nM, a: 618 nM)

[I] CC(C)(C)OC(=O)N1CCN(c2ccc(NC(=O)c3ccc(Cn4nnc5c(N6CCOCC6)nc(-c6cccc(O)c6)nc54)cc3)cc2)CC1
[II] CN(C)CCCOc1ccc(CN2CC(Cn3nnc4c(N5CCOCC5)nc(-c5ccc(NC(=O)Nc6ccccc6)cc5)nc43)C2)cc1
Request: Hi there, can you help? I need to know whether I or II has lower measured IC50. Write down the label attached to your selection.
Result: II
(II: 210 nM, I: 8080 nM)

Source listed as patent US20090181963A1.
